meta.source: a melting point compilation (Tetko et al.; mined from patent text by program, amines drawn as free bases though some values may be those of a salt)

Please provide measured melting point for the entries that follow.

In the examples that follow, each entry is paired with its recorded melting point.
COMPOUND | melting point
COC(=O)c1ccc(C(=O)c2c(C)c(OCc3cccc(OC)c3)c3ccccn23)cc1 | 106 °C
COc1c(C2CCN(CCCCNC(=O)c3ccc(-c4ccc(Cl)cc4)nc3)CC2)ccc2c1CCCC2 | 184 to 186 °C
C=CCC(O)CCCCCCCCCCCCCCC (stereo unspecified) | 37 to 39.5 °C

Record melting point per entry; entries follow.
1. Cc1ccc(NC(=O)OCc2ccco2)cc1NC(=O)OCc1ccco1
2. C#CCOc1ccc2c(C)cc(=O)oc2c1C(=O)C=Cc1cc(OC)c(OC)c(OC)c1
3. CCCCc1cc2ccccc2c(Oc2ccc(/C=C/C(=O)O)cc2)c1-c1ccccc1
4. O=C(NCc1ccccc1)c1ccnc(-n2cnn(Cc3ccc(F)cc3)c2=O)c1
5. Cc1c(C(=O)c2ccccc2)c(NC(=O)CI)cn1C
6. CCOC(=O)C(F)(F)C(O)C(CC(C)C)NC(=O)OC(C)(C)C (stereo unspecified)
7. C=C(C(=O)c1c(OC)ccc(-c2cccs2)c1OC)c1ccc(C(=O)O)cc1
8. NCC(=O)Nc1cccc(C(N)=O)c1

154 to 156 °C
191 to 193 °C
160 to 161 °C
173 to 175 °C
135 to 137 °C
72 to 76 °C
193 to 195 °C
139 to 140 °C

Provide reported melting point for each item, in the same order as listed.
1. O=C(c1c[nH]c2cc(O)ccc12)C1CSC(c2cccnc2)N1 (stereo unspecified)
2. Clc1ccc(OC(c2ccc(Cl)cc2)C(Cl)(Cl)Cl)cc1 (stereo unspecified)

203 to 205 °C
101 °C

# batch: return melting point for each of the 8 compounds below
1. Clc1ccc(-c2nc3n(c2Cl)CCCC3)c(Cl)c1
2. CN1C(=S)NN2CCCC21c1ccc(Cl)cc1 (stereo unspecified)
3. COc1ccc(C(=O)CCCCCBr)cc1F
4. C#Cc1cnn2c(C(F)(F)F)cc(-c3cccc(C(F)(F)F)c3)nc12
5. CC(C)CNc1cc[nH]c(=S)c1C#N
6. O=S(=O)(NCc1ccnc2c(Cl)cccc12)c1ccc(-c2ccc(C(F)(F)F)cc2C(F)(F)F)cc1
7. COC1(OC)CC(Nc2ncnc3c2ncn3C2OC(CO)C(O)C2O)NC1=O (stereo unspecified)
8. CC(=O)OC1CSC(Oc2ccccc2[N+](=O)[O-])C(OC(C)=O)C1OC(C)=O (stereo unspecified)

99 to 101 °C
159 to 161 °C
47 to 48 °C
154 °C
117 to 119 °C
184 to 185 °C
176 to 178 °C
148 °C

---

I'd be grateful if you could share measured melting point for these entries.

Known results for molecules:
MOLECULE | melting point
CCCCCCCNC(=O)Nc1ccccc1C(=O)Nc1ccc(CCCCCCC)cc1 | 155 to 157 °C
CN[C@@H]1COc2cc(Cl)ccc2O1 | 70 to 71 °C
CC(=O)OCCn1nc(-c2cc(C(C)(C)C)c(O)c(C(C)(C)C)c2)c2c(C)cc(C)nc21 | 110 to 111 °C
CN(C)S(=O)(=O)c1cc2c(c(C(=O)O)c1)OC(C)(C)C2 | 211 to 212 °C
C=COC(=O)N1CC2C(=O)C=CC(c3ccccc3)(c3ccccc3)C2C1 (centres undefined) | 162 °C

Give measured melting point for every item shown.
1. CCOC(=O)C1(C(=O)OCC)CCC2(c3cc(OC)c(OC)cc3CCN2C(=O)CCN(C)C)C(C2c3cc(OC)c(OC)cc3CCN2C(C)=O)C1 (centres undefined)
2. CC(C)(C)c1cc(-c2csc(CN3CCOCC3)n2)cc(C(C)(C)C)c1O
3. CN(C)c1ccc(C2(c3ccc(N(C)C)cc3N(C)C)OC(=O)c3c(Cl)c(Cl)c(Cl)c(Cl)c32)c(N(C)C)c1

1. 154 to 156 °C
2. 137 °C
3. 195 to 197 °C

May I ask what melting point has been recorded for O=C1CN(N=Cc2ncc(-c3ccc([N+](=O)[O-])cc3)o2)C(=O)N1 ? 314 to 316 °C
